target_entity: CDK9/cyclin T1 (Homo sapiens)
Sequence (P50750 whole entry, species assumed): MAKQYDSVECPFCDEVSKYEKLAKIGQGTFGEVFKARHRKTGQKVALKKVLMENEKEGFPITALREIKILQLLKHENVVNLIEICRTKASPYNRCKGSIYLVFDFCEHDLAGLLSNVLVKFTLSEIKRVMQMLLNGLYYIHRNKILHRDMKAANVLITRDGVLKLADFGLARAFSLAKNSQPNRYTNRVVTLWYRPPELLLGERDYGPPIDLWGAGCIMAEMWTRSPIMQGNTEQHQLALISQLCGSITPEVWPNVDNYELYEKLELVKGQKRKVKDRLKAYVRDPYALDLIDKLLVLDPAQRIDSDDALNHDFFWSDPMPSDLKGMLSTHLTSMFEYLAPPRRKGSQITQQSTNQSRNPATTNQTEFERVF
Sequence (O60563 whole entry partner, species assumed): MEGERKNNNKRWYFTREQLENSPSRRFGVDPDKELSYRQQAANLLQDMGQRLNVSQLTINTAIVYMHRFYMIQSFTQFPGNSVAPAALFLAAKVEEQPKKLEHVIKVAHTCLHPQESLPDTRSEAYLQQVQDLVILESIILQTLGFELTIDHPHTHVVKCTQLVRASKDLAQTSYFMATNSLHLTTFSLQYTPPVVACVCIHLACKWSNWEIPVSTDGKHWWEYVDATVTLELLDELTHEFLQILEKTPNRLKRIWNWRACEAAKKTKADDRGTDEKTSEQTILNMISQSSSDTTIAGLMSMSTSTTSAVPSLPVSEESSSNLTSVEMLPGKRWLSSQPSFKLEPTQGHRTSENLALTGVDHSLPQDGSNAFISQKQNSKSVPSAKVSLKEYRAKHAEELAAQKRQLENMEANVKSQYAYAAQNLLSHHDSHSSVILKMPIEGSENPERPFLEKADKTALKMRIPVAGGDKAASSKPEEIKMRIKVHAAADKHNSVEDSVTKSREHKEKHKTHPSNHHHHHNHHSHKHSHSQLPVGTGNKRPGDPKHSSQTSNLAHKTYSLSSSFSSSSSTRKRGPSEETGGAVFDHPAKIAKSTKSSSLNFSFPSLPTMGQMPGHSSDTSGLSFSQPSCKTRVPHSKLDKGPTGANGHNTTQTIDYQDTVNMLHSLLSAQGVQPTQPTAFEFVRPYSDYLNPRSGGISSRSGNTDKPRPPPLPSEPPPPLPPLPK
test_method_notes: Assay of kinase activity (ADP-Glo)
setup_conditions: kinase inhibitory activity
property: IC50 (nM)
Report the figure in nM without appending any unit label.

Example entries begin here.
compound	IC50 (nM)
CC(C)N[C@H]1CCN(C(=O)c2ccc(Nc3ncc4ccc5nnn([C@@H]6CCC[C@@]6(C)O)c5c4n3)cc2)C1 [Example I-63]	3
C[C@@H](n1nnc2ccc3cnc(Nc4ccc(C(=O)N5CCNCC5)cc4)nc3c21)C(C)(C)O [Example I-56]	15
CN[C@H]1CCN(C(=O)c2ccc(Nc3ncc4ccc5nnn(C(C)C)c5c4n3)cc2)C1 [Example I-6]	2
CN[C@@H]1CCN(C(=O)c2ccc(Nc3ncc4ccc5nnn(C(C)C)c5c4n3)cc2)C1 [Example I-7]	3

Entry CC(C)N[C@H]1CCN(C(=O)c2ccc(Nc3ncc4ccc5nnn([C@H](C)C(C)(C)O)c5c4n3)cc2)C1 [Example I-55] , IC50 reported as 6

Form field IC50, entry CC1(O)CCCC1n1c(=O)c(C(F)F)cc2cnc(NC3CCN(S(C)(=O)=O)CC3)nc21 (stereo not drawn) [PF06873600 (Ebvaciclib), reference compound] : 452

Given item CC(C)n1nnc2ccc3cnc(Nc4ccc(C(=O)N5CCNCC5)c(F)c4)nc3c21 [Example I-19] , the value recorded as its IC50 is 8

// IC50 value for CN(C)[C@H]1CCN(C(=O)c2ccc(Nc3ncc4ccc5nnn([C@@H]6CCC[C@@]6(C)O)c5c4n3)cc2)C1 [Example I-64] : 3

Briefly, IC50 measured for C[C@@H](n1nnc2ccc3cnc(Nc4ccc(C(=O)N5CCCN(C)CC5)cc4)nc3c21)C(C)(C)O [Example I-61] : 16
